Target: T1, hCMV glycoprotein B (gB; HEK293T transfectant) (hCMV, UniProt P06473 32-906)
T1 construct: whole, on cells; in the functional rows it stands for gB on virions or transduced cells of the strain or isolate named in the readout
T1 sequence (P06473 32-906 limits assumed): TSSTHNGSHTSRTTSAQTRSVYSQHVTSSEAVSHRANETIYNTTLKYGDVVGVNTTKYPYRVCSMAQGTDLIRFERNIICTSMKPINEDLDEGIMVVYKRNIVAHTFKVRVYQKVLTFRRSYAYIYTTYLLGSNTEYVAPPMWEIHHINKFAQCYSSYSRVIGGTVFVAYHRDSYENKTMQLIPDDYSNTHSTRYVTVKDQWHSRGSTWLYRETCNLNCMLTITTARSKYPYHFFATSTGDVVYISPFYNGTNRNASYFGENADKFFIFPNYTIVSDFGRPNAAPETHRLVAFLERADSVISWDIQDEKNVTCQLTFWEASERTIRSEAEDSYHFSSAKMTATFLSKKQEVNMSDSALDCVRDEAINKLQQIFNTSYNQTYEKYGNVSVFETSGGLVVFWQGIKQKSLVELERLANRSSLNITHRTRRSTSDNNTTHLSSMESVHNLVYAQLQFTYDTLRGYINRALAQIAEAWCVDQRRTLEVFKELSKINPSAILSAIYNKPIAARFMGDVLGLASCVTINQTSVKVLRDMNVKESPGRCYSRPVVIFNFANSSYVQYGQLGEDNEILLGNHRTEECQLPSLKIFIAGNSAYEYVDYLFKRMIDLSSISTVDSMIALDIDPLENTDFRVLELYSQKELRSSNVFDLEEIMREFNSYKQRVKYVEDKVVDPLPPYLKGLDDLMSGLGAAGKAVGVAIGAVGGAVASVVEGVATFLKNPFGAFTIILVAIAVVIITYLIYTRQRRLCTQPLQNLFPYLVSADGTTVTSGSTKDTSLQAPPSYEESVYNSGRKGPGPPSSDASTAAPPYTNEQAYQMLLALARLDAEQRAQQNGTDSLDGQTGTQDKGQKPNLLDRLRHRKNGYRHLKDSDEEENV
Assay: cell competition; competitor 7H3-biotin
Listing of recorded Inhibition of binding (%) by entry.
Report the figure in % without appending any unit label.

Inquiry: Return reported Inhibition of binding (%); argument: 5F1 (antibody, V domains shown, human IgG; also called 5F1-biotin) VH: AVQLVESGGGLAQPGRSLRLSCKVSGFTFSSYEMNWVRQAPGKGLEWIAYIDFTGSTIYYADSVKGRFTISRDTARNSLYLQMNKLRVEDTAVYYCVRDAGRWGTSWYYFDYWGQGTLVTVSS VL: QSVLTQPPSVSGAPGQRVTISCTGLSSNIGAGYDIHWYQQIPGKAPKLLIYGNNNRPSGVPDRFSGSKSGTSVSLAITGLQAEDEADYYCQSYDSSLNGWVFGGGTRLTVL
Reply text: 0

Inquiry: Now the binder 2B11 (antibody, V domains shown, human IgG; also called 2B11-biotin) VH: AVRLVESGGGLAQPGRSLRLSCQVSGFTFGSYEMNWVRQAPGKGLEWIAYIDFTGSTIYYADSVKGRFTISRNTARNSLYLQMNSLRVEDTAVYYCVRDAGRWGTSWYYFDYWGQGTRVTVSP VL: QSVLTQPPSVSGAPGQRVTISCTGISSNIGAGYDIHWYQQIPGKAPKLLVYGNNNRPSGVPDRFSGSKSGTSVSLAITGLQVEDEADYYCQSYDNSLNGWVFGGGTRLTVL
Reply text: 0

Inquiry: Now the binder 6B4 (antibody, V domains shown, human IgG; also called 6B4-biotin) VH: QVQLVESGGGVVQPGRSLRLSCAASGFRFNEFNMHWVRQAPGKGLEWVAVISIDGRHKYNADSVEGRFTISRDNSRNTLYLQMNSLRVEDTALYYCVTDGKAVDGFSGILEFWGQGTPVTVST VL: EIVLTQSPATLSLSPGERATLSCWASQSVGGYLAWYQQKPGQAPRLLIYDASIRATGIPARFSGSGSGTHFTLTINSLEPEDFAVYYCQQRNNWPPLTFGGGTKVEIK
Reply text: 0

The reported measurements were obtained from patent US20170296650A1.
